Molecular target: human Edg-2 receptor (Homo sapiens)
Sequence (Q92633 whole entry): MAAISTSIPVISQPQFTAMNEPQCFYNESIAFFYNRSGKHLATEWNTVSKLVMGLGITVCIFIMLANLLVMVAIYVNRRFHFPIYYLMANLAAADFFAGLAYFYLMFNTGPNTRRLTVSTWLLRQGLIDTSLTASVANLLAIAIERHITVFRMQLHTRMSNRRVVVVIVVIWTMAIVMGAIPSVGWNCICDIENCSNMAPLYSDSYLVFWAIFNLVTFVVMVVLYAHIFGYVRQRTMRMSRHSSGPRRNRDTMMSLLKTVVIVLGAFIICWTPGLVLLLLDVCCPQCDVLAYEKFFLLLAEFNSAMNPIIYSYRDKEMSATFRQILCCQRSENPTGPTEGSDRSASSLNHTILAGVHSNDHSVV
Assay: Determination of Edg-2 receptor inhibition by FLIPR measurements (LPA-mediated calcium liberation)
Details: CHO cells overexpressing human Edg-2 receptor, LPA 100 nM, fluo-4 calcium fluorescence; read-out: Inhibitory concentrations IC50 for inhibition of the Edg-2 receptor
observable: IC50

Task item: Quick one: IC50 for "COc1ccc(C(=O)NC2(C(=O)O)CCCCCC2)cc1OCCc1cccc(CCO)c1" ?
Reply: < 0.1 µM

Task item: What do you have for "CC[C@H]1CC[C@](NC(=O)c2ccc(OC)c(OCCc3cccc(Cl)c3)c2)(C(=O)O)CC1" ?
Reply: < 0.1 µM

Task item: // repeat for "COc1ccc(C(=O)NC2(C(=O)O)CCCCCC2)cc1OCCc1ccccc1Cl" and report
Reply: < 0.1 µM
